These data points were gathered from patent US5153227A.

TEST_SYSTEM: aldose reductase (Bos taurus)
Construct: partially purified aldose reductase is isolated in known manner from bovine lenses
PROCEDURE_DETAILS: in vitro inhibition of partially purified aldose reductase isolated from bovine lenses (reduction of glucose to sorbitol, spectrophotometric)
STATED_CONDITIONS: in vitro test, bovine lens aldose reductase
Description: Thus, partially purified aldose reductase is isolated in known manner from bovine lenses. The percentage inhibition of this enzyme's ability in vitro to catalyse the reduction of aldoses to polyhydric alcohols, and particularly to reduce glucose to sorbitol, caused by a test compound is then determined using standard spectrophotometric methods.
METRIC: IC50 (µM)
Write the number in µM without appending the unit.

Q. If you can, please state the reported IC50 value of O=[N+]([O-])CS(=O)(=O)c1cccc2ccccc12 .
A. 0.32
